Test target: Peregrin (Homo sapiens) (UniProt P55201)
Condition notes: Compound concentration 20.0 uM, Protein concentration 2.0 uM, Result type QC Liability
Our labelling divides records by ΔTm into ranges: band A (below -2 °C), band B (-2 °C to below -1 °C), band C (-1 °C or more)

Please review the following examples before continuing.
>>> category_label("CCOc1ccc(S(=O)(=O)Nc2ccc(Cl)cc2C#Cc2cnc(C(=O)O)cc2OC)c2ncccc12")
"band B"
>>> category_label("COCc1nc2cnc3cc(-c4c(C)noc4C)c(OC[C@H]4CCNC4)cc3c2n1[C@H](C)c1ccccc1")
"band B"
>>> category_label("CN1C(=O)Cc2ccc(-c3ccc(C[C@@H](C#N)NC(=O)[C@H]4N[C@@H]5CC[C@H]4C5)c(F)c3)cc21")
"band C"
>>> category_label("COc1cc2ncnc(Nc3cccc(O)c3)c2cc1OC")
"band B"
>>> category_label("CNc1nc(Nc2ccc(C(=O)N3CCOCC3)cc2OC)ncc1Cl")
"band B"

### Prompt Assign a bin to CN(C)CC#Cc1ccc2[nH]c3c(c2c1)-c1nc(N)ncc1CCC3
### Response band C

### Prompt Continue with C[S+]([O-])c1ccc(-c2nc(-c3cccc(I)c3)c(-c3ccncc3)[nH]2)cc1 (centres undefined)
### Response band B

### Prompt Request: CN[C@@H](C)C(=O)N[C@H](C(=O)N1CCC[C@H]1c1nc(C(=O)c2ccc(F)cc2)cs1)C1CCCCC1
### Response band B

### Prompt Item: CCC(=O)O[C@@H](OP(=O)(CCCCc1ccccc1)CC(=O)N1C[C@H](C2CCCCC2)C[C@H]1C(=O)O)C(C)C (some centres undefined)
### Response band B

### Prompt Now the compound CC1CCN(c2ccnc(NCc3cn(C)cn3)n2)CC1
### Response band A

###

Test target: UniProt:P55201
Sequence (whole entry): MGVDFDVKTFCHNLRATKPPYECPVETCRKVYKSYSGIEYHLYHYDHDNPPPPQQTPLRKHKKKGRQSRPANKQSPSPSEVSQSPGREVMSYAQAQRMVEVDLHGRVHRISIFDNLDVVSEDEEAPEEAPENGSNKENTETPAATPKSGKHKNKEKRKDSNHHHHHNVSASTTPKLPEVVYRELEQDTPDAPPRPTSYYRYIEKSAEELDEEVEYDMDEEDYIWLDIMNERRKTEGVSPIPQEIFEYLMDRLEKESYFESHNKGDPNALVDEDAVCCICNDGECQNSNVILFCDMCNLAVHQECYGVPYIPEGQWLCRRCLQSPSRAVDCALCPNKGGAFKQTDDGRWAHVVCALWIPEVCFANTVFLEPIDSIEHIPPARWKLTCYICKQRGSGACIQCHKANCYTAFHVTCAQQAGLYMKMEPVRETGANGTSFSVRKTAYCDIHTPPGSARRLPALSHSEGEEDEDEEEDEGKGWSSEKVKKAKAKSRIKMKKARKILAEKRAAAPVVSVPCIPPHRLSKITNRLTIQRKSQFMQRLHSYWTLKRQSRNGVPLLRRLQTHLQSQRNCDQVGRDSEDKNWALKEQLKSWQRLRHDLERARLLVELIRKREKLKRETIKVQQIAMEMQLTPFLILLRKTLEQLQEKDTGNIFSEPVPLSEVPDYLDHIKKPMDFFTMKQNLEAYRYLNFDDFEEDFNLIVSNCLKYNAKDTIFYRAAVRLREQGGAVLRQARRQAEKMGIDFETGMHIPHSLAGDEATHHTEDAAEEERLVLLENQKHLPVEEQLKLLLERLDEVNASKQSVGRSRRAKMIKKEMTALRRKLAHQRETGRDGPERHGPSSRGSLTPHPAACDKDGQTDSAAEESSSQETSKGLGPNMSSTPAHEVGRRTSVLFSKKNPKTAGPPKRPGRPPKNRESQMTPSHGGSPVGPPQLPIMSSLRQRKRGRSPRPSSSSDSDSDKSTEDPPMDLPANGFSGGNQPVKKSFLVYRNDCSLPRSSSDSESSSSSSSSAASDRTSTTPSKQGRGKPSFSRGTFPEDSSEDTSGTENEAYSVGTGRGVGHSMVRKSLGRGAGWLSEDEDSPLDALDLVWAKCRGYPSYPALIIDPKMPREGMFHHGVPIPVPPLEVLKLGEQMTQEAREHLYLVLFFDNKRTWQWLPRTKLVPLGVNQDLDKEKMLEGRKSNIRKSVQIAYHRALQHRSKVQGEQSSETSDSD
Condition notes: Compound concentration 20.0 uM, Protein concentration 2.0 uM, Result type QC Liability
Observable: ΔTm (°C)
Write the number in °C without appending the unit.

Known ΔTm results, listed for orientation:
>>> measured_result("CS(=O)(=O)c1cc(C2(NC(=O)c3cncc4c3cnn4-c3ccc(F)cc3)CC2)ccn1")
-2.04
>>> measured_result("CC(=O)c1ccc2c(c1)/C(=C(/Nc1cccc(C#N)c1)c1ccc3c(c1)OCCO3)C(=O)N2")
-0.95
>>> measured_result("O=C(O)c1ccnc(N2CC(O)(c3ccc(OCc4c(-c5c(Cl)cccc5Cl)noc4C4CC4)cc3Cl)C2)c1")
-1.75
>>> measured_result("O=C1Nc2ccc(C(=O)c3ccco3)cc2C1=Cc1cc(Cl)c(O)c(Cl)c1")
0.59

### Prompt Which measured ΔTm value corresponds to Fc1ccc(-c2nc(-c3ccc4ccccc4c3F)[nH]c2-c2ccncc2)cc1 ?
### Response 0.17

### Prompt Can you handle Cc1c(CN2CCC3(CC2)CN(c2ncnc4sc(CC(F)(F)F)cc24)C3)ccc2c1cc(C#N)n2CC(N)=O next?
### Response -1.41

### Prompt Queued: O=C(O)Cc1cc(I)c(Oc2ccc(O)c(I)c2)c(I)c1
### Response -2.62

### Prompt Also, O=C(Cc1ccccc1[N+](=O)[O-])Nc1ccc(-c2ccc(C(O)(C(F)(F)F)C(F)(F)F)cc2F)cc1 please.
### Response 1.8

### Prompt Likewise for Cn1cc(-c2cnc3ccc4ccc(CS(=O)(=O)NCc5ccccn5)cc4c(=O)c3c2)cn1 ?
### Response -1.66

### Prompt Lookup OC(c1ccc(-c2ccc(CN3CCN(Cc4ccncc4)CC3)cc2)c(F)c1)(C(F)(F)F)C(F)(F)F
### Response -2.07

### Prompt Further, for C[C@@H](CO)CCC[C@@H](C)[C@H]1CC[C@H]2[C@@H]3CC=C4C[C@@H](O)CC[C@]4(C)[C@H]3CC[C@]12C ?
### Response -1.97

###

Test target: Peregrin (Homo sapiens)
Condition notes: Compound concentration 20.0 uM, Protein concentration 2.0 uM, Result type QC Liability
Observable: ΔTm (°C)
Numeric only. Scale: °C

### Prompt Look at this molecule and give its reported ΔTm. Cc1ccc(NC(=O)c2ccc(CN3CC[C@H](N(C)C)C3)c(C(F)(F)F)c2)cc1Nc1nccc(-c2cncnc2)n1
### Response -3.14

### Prompt Now give it for COc1ccc(CC[C@@H](OC(=O)[C@H]2CCCCN2C(=O)[C@@H](c2cc(OC)c(OC)c(OC)c2)C2CCCCC2)c2cccc(OCCN3CCOCC3)c2)cc1OC too.
### Response -4.81

###

Test target: Peregrin (Homo sapiens) (UniProt P55201)
Condition notes: Compound concentration 20.0 uM, Protein concentration 2.0 uM, Result type QC Liability
Form field: ΔTm (one value per entry).

Example results:
>>> measured_result("COCCN(C)c1ccc(NC(=O)/C=C(\\C)c2ccc3ccccc3c2)c(C(=O)O)c1")
"-1.83 °C"
>>> measured_result("N#Cc1cccc(-c2c[nH]c3ncnc(N4CCOCC4)c23)c1")
"-1.1 °C"

### Prompt I am curious: what ΔTm value has been reported for O=C(Nc1ccccc1C(=O)O)c1cc(S(=O)(=O)c2ccccc2)ccc1Cl ?
### Response -3.6 °C

### Prompt Further, for Cc1ccc2c(N)c(C(=O)NC3CCc4cc(N5CC6CCC(C5)N6)ccc4C3)sc2n1 (stereo unspecified) ?
### Response -1.37 °C

### Prompt Can you handle CCOC(=O)Nc1ccc2c(c1)N(C(=O)CN(CC)CC)c1ccccc1CC2 next?
### Response -1.21 °C

### Prompt Moving on to the next molecule: CCc1nc(C2CCC2)n2nc(-c3ccccc3)[nH]c(=O)c12
### Response -2.47 °C

Recorded values, source ChEMBL document CHEMBL5308504.
